Molecular target: BRS3 (Homo sapiens)
Assay: cell-based
Conditions: EC50 Arrestin, Table 5
observable: pEC50
Keep it numeric: pEC50 is minus log10 of the concentration in mol/L.

Here is how some compounds turned out for pEC50.
compound="CC(C)CC(=O)O[C@H]1[C@H]2[C@@H](C[C@@H](C)[C@@H]3C=CC(=O)[C@]31C)OC(=O)[C@@H]2C [Compound 5, Arnicolide B]" experimental_system="BRS3 (Homo sapiens)" observable=pEC50 observed_value=5.12
compound="CCC(C)C(=O)O[C@H]1[C@@H]2[C@H](C)C(=O)O[C@@H]2C[C@@H](C)C2[C@@H](C)CC(=O)[C@]21C (stereo partly drawn) [Compound B, 11α-13-dihydroarnifolin B]" experimental_system="BRS3 (Homo sapiens)" observable=pEC50 observed_value=4.85
compound="CC(C)C(=O)O[C@H]1[C@H]2[C@@H](C[C@@H](C)[C@@H]3C=CC(=O)[C@]31C)OC(=O)[C@@H]2C [Compound 2, Arnicolide C]" experimental_system="BRS3 (Homo sapiens)" observable=pEC50 observed_value=5.55
compound="CC=C(C)C(=O)OC1C2C(CC(C)C3C=CC(=O)C31C)OC(=O)C2C (stereo not shown)" experimental_system="BRS3 (Homo sapiens)" observable=pEC50 observed_value=5.70
compound="CCC(C)C(=O)O[C@H]1[C@@H]2[C@H](C)C(=O)O[C@@H]2C[C@@H](C)C2[C@@H](O)CC(=O)[C@]21C (stereo partly shown)" experimental_system="BRS3 (Homo sapiens)" observable=pEC50 observed_value=5.57
compound="C=C(C)C(=O)O[C@H]1[C@H]2[C@@H](C[C@@H](C)[C@@H]3C=CC(=O)[C@]31C)OC(=O)[C@@H]2C [Compound 1, Arnicolide D]" experimental_system="BRS3 (Homo sapiens)" observable=pEC50 observed_value=5.55

Incoming: Could you tell me which pEC50 is on file for CCC(C)C(=O)O[C@H]1[C@H]2[C@@H](C[C@@H](C)C3C=CC(=O)[C@]31C)OC(=O)[C@@H]2C (stereo partly shown) ?
Outgoing: 5.63

---

EC50: recorded values
Target: GRPR (Homo sapiens)
Sequence (P30550 whole entry, species assumed): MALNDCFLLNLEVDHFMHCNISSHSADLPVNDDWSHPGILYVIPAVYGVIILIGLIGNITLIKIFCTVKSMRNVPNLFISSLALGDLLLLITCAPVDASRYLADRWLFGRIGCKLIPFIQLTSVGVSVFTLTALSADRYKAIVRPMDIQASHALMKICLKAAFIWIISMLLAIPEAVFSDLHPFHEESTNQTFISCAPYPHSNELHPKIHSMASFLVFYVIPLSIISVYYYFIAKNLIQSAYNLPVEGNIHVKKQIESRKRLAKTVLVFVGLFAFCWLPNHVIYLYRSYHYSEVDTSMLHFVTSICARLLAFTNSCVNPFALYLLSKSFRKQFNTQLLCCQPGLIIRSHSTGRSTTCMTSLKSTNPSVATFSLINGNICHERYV
Experiment: cell-based
Conditions: Table 6

// solved cases for EC50 follow
compound="CCC(C)C(=O)O[C@H]1[C@@H]2[C@H](C)C(=O)O[C@@H]2C[C@@H](C)C2[C@@H](O)CC(=O)[C@]21C (stereo partly drawn)" observable=EC50 observed_value="> 1360 µM"
compound="CCC(C)C(=O)O[C@H]1[C@@H]2[C@H](C)C(=O)O[C@@H]2C[C@@H](C)C2[C@@H](C)CC(=O)[C@]21C (stereo partly drawn) [Compound B, 11α-13-dihydroarnifolin B]" observable=EC50 observed_value="> 686 µM"

With those in mind, consider the next compound.
Incoming: Need EC50 of CCC(C)C(=O)O[C@H]1[C@H]2[C@@H](C[C@@H](C)C3C=CC(=O)[C@]31C)OC(=O)[C@@H]2C (stereo partly drawn) , thanks.
Outgoing: > 861 µM

---

# reported pEC50; entries follow
Target: human BRS3 (Homo sapiens)
Construct: expressed in transfected cells; host or cells: U2OS
Sequence (P32247 1-399): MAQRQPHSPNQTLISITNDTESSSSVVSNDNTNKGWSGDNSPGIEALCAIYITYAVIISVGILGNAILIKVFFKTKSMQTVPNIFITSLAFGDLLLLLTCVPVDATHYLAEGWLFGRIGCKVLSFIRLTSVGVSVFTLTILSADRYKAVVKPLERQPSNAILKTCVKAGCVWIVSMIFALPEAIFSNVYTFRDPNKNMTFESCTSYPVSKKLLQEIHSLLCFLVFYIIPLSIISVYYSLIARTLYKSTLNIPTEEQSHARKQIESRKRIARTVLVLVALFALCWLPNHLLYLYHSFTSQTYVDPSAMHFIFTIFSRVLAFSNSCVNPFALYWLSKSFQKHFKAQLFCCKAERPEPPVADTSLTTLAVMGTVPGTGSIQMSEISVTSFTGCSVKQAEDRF
Experiment: Cytosolic Ca++ mobilization assay in U2OS cells expressing BRS3
Assay type: cell-based
Scale for pEC50: -log10 of concentration given in mol/L; no unit attached.

Solved entries:
molecule="CC(C)C(=O)O[C@H]1[C@H]2[C@@H](C[C@@H](C)[C@@H]3C=CC(=O)[C@]31C)OC(=O)[C@@H]2C [Compound 2, Arnicolide C]" observed_value=4.92
molecule="C=C(C)C(=O)O[C@H]1[C@H]2[C@@H](C[C@@H](C)[C@@H]3C=CC(=O)[C@]31C)OC(=O)[C@@H]2C [Compound 1, Arnicolide D]" observed_value=5.00
molecule="CCC(C)C(=O)O[C@H]1[C@H]2[C@@H](C[C@@H](C)C3C=CC(=O)[C@]31C)OC(=O)[C@@H]2C (some centres unmarked) [Compound 4, Microhelenin B]" observed_value=5.38
molecule="CC=C(C)C(=O)OC1C2C(CC(C)C3C=CC(=O)C31C)OC(=O)C2C (centres unmarked) [Compound 3, Microhelenin C]" observed_value=4.96

Now look at this entry.
Incoming: Return reported pEC50; argument: CC(C)CC(=O)O[C@H]1[C@H]2[C@@H](C[C@@H](C)[C@@H]3C=CC(=O)[C@]31C)OC(=O)[C@@H]2C [Compound 5, Arnicolide B]
Outgoing: 4.70

// provenance: patent US20120156314A1
